Attribution: PubChem BioAssay AID2060899

Let's look at some molecules and their measured viability, T/C.
tested on: 565726-208-R1-J5-PDC complex spheroids, growth inhibition; assay: Anticancer human tumor 565726-208-R1-J5-PDC patient-derived pancreatic adenocarcinoma cell line growth inhibition [RAS]; settings: second compound 0.3 µM; first compound 3.16 µM; stronger effect = lower value
MEASUREMENT_LABEL: viability, T/C (%)

# MOLECULE, MEASUREMENT_LABEL, MEASURED
records = [
    ("CCC(CC)c1cc(NC2CCC(N)C2)n2nccc2n1 (configuration not stated) + CCn1c(-c2cccnc2C(C)OC)c2c3cc(ccc31)N1CCOC(CC(NC(=O)C(C(C)C)N(C)C(=O)C3(F)CCN(C(=O)C#CC(C)(C)N(C)C)CC3)C(=O)N3CCCC(N3)C(=O)OCC(C)(C)C2)C1", "viability, T/C", 0.87),
    ("CC(=O)OC12COC1CC(O)C1(C)C(=O)C(O)C3=C(C)C(OC(=O)C(O)C(NC(=O)OC(C)(C)C)c4ccccc4)CC(O)(C(OC(=O)c4ccccc4)C21)C3(C)C (configuration not stated) + CCn1c(-c2cc(N3CCN(C)CC3)cnc2C(C)OC)c2c3cc(ccc31)-c1csc(n1)CC(NC(=O)C1CC1C)C(=O)N1CCCC(N1)C(=O)OCC(C)(C)C2", "viability, T/C", 12),
]

----------
system: 565726-208-R1-J5-PDC complex spheroids, growth inhibition; assay: Anticancer human tumor 565726-208-R1-J5-PDC cell line growth inhibition [RAS]; details: second compound 0.000949 µM; first compound 1 µM; stronger effect = lower value;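 note: spheroids exposed to compounds for seven days before readout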;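 for viability, T/C: 100% = DMSO vehicle control viability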

# MOLECULE, viability, T/C / %
data = [
    ("CC(C)NCC(C(=O)N1CCN(c2ncnc3c2C(C)CC3O)CC1)c1ccc(Cl)cc1 (stereo not drawn) + CCn1c(-c2cccnc2C(C)OC)c2c3cc(ccc31)N1CCOC(CC(NC(=O)C(C(C)C)N(C)C(=O)C3(F)CCN(C(=O)C#CC(C)(C)N(C)C)CC3)C(=O)N3CCCC(N3)C(=O)OCC(C)(C)C2)C1", 85.1),
    ("CCN1CCN(Cc2ccc(Nc3ncc(F)c(-c4cc(F)c5nc(C)n(C(C)C)c5c4)n3)nc2)CC1 + CCn1c(-c2cccnc2C(C)OC)c2c3cc(ccc31)N1CCOC(CC(NC(=O)C(C(C)C)N(C)C(=O)C3(F)CCN(C(=O)C#CC(C)(C)N(C)C)CC3)C(=O)N3CCCC(N3)C(=O)OCC(C)(C)C2)C1", 56.2),
    ("CC(=O)OC12COC1CC(O)C1(C)C(=O)C(O)C3=C(C)C(OC(=O)C(O)C(NC(=O)OC(C)(C)C)c4ccccc4)CC(O)(C(OC(=O)c4ccccc4)C21)C3(C)C (stereo not drawn) + CCn1c(-c2cccnc2C(C)OC)c2c3cc(ccc31)N1CCOC(CC(NC(=O)C(C(C)C)N(C)C(=O)C3(F)CCN(C(=O)C#CC(C)(C)N(C)C)CC3)C(=O)N3CCCC(N3)C(=O)OCC(C)(C)C2)C1", 16.5),
]

----------
tested on: 565726-208-R1-J5-PDC complex spheroids, growth inhibition; test: Anticancer human tumor 565726-208-R1-J5-PDC cell line growth inhibition [RAS]; details: second compound 0.03 µM; first compound 3.16 µM; stronger effect = lower value;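 note: spheroids exposed to compounds for seven days before readout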;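 for viability, T/C: 100% = DMSO vehicle control viability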
Let's look at some compounds and their measured viability, T/C.
MEASUREMENT_LABEL: viability, T/C (%)

# COMPOUND, TARGET_OF_ASSAY, MEASUREMENT_LABEL, MEASURED
data = [
    ("CC(=O)OC12COC1CC(O)C1(C)C(=O)C(O)C3=C(C)C(OC(=O)C(O)C(NC(=O)OC(C)(C)C)c4ccccc4)CC(O)(C(OC(=O)c4ccccc4)C21)C3(C)C (centres undefined) + CCn1c(-c2cccnc2C(C)OC)c2c3cc(ccc31)N1CCOC(CC(NC(=O)C(C(C)C)N(C)C(=O)C3(F)CCN(C(=O)C#CC(C)(C)N(C)C)CC3)C(=O)N3CCCC(N3)C(=O)OCC(C)(C)C2)C1", "565726-208-R1-J5-PDC complex spheroids, growth inhibition", "viability, T/C", 21.6),
    ("CC1(O)CCCC1n1c(=O)c(C(F)F)cc2cnc(NC3CCN(S(C)(=O)=O)CC3)nc21 (centres undefined) + CCn1c(-c2cccnc2C(C)OC)c2c3cc(ccc31)N1CCOC(CC(NC(=O)C(C(C)C)N(C)C(=O)C3(F)CCN(C(=O)C#CC(C)(C)N(C)C)CC3)C(=O)N3CCCC(N3)C(=O)OCC(C)(C)C2)C1", "565726-208-R1-J5-PDC complex spheroids, growth inhibition", "viability, T/C", 51.5),
    ("Cc1nc(N2CCC3(CC2)COC(C)C3N)c(CO)nc1Sc1ccnc(N)c1Cl (centres undefined) + CCn1c(-c2cc(N3CCN(C)CC3)cnc2C(C)OC)c2c3cc(ccc31)-c1csc(n1)CC(NC(=O)C1CC1C)C(=O)N1CCCC(N1)C(=O)OCC(C)(C)C2", "565726-208-R1-J5-PDC complex spheroids, growth inhibition", "viability, T/C", 19.8),
    ("CC(Nc1ccc2c(c1)OCCn1cc(N3C(=O)OCC3C(F)F)nc1-2)C(N)=O (centres undefined) + CCn1c(-c2cccnc2C(C)OC)c2c3cc(ccc31)N1CCOC(CC(NC(=O)C(C(C)C)N(C)C(=O)C3(F)CCN(C(=O)C#CC(C)(C)N(C)C)CC3)C(=O)N3CCCC(N3)C(=O)OCC(C)(C)C2)C1", "565726-208-R1-J5-PDC complex spheroids, growth inhibition", "viability, T/C", 55.2),
]

----------
test system: 565726-208-R1-J5-PDC complex spheroids, growth inhibition; test: Anticancer human tumor 565726-208-R1-J5-PDC cell line growth inhibition [RAS]; settings: second compound 0.00949 µM; first compound 0.0316 µM; stronger effect = lower value;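 note: spheroids exposed to compounds for seven days before readout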;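 for viability, T/C: 100% = DMSO vehicle control viability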
Let's look at some compounds and their measured viability, T/C.

# COMPOUND, READING_UNIT, viability, T/C
rows = [
    ("Nc1ccn(C2OC(CO)C(O)C2(F)F)c(=O)n1 (centres undefined) + CCn1c(-c2cc(N3CCN(C)CC3)cnc2C(C)OC)c2c3cc(ccc31)-c1csc(n1)CC(NC(=O)C1CC1C)C(=O)N1CCCC(N1)C(=O)OCC(C)(C)C2", "%", 34.2),
    ("CCN1CCN(Cc2ccc(Nc3ncc(F)c(-c4cc(F)c5nc(C)n(C(C)C)c5c4)n3)nc2)CC1 + CCn1c(-c2cc(N3CCN(C)CC3)cnc2C(C)OC)c2c3cc(ccc31)-c1csc(n1)CC(NC(=O)C1CC1C)C(=O)N1CCCC(N1)C(=O)OCC(C)(C)C2", "%", 31.1),
    ("CCC(CC)c1cc(NC2CCC(N)C2)n2nccc2n1 (centres undefined) + CCn1c(-c2cccnc2C(C)OC)c2c3cc(ccc31)N1CCOC(CC(NC(=O)C(C(C)C)N(C)C(=O)C3(F)CCN(C(=O)C#CC(C)(C)N(C)C)CC3)C(=O)N3CCCC(N3)C(=O)OCC(C)(C)C2)C1", "%", 112),
    ("CCC(CC)c1cc(NC2CCC(N)C2)n2nccc2n1 (centres undefined) + CCn1c(-c2cc(N3CCN(C)CC3)cnc2C(C)OC)c2c3cc(ccc31)-c1csc(n1)CC(NC(=O)C1CC1C)C(=O)N1CCCC(N1)C(=O)OCC(C)(C)C2", "%", 47.2),
]

----------
tested on: 565726-208-R1-J5-PDC complex spheroids, growth inhibition; assay: Anticancer human tumor 565726-208-R1-J5-PDC cell line growth inhibition [RAS]; settings: curve of first compound; second compound 0.1 µM;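 note: spheroids exposed to compounds for seven days before readout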
MEASUREMENT_LABEL: IC50

# COMPOUND, MEASURED
data = [
    ("Cc1nc(N2CCC3(CC2)COC(C)C3N)c(CO)nc1Sc1ccnc(N)c1Cl (stereo not drawn) + C#Cc1c(F)ccc2cc(O)cc(-c3ncc4c(N5CC6CCC(C5)N6)nc(OCC56CCCN5CC(F)C6)nc4c3F)c12", "> 10 µM"),
    ("CC(C)n1nc(-c2ccc3oc(N)nc3c2)c2c(N)ncnc21 + C=CC(=O)N1CCN(c2nc(OCC3CCCN3C)nc3c(F)c(-c4nc(N)cc(C)c4C(F)(F)F)c(Cl)cc23)C(C)C1", "0.0591 µM"),
    ("Cc1nc(N2CCC3(CC2)COC(C)C3N)c(CO)nc1Sc1ccnc(N)c1Cl (stereo not drawn) + C=CC(=O)N1CCN(c2nc(OCC3CCCN3C)nc3c(F)c(-c4nc(N)cc(C)c4C(F)(F)F)c(Cl)cc23)C(C)C1", "> 10 µM"),
]

----------
system: 565726-208-R1-J5-PDC complex spheroids, growth inhibition; experiment: Anticancer human tumor 565726-208-R1-J5-PDC cell line growth inhibition [RAS]; conditions: second compound 0.03 µM; first compound 10 µM; stronger effect = lower value;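 note: spheroids exposed to compounds for seven days before readout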;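 for viability, T/C: 100% = DMSO vehicle control viability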

# MOLECULE, viability, T/C / %
measured = [
    ("CC1(O)CCCC1n1c(=O)c(C(F)F)cc2cnc(NC3CCN(S(C)(=O)=O)CC3)nc21 (centres undefined) + CCn1c(-c2cccnc2C(C)OC)c2c3cc(ccc31)N1CCOC(CC(NC(=O)C(C(C)C)N(C)C(=O)C3(F)CCN(C(=O)C#CC(C)(C)N(C)C)CC3)C(=O)N3CCCC(N3)C(=O)OCC(C)(C)C2)C1", 5.14),
    ("CCC(CC)c1cc(NC2CCC(N)C2)n2nccc2n1 (centres undefined) + CCn1c(-c2cc(N3CCN(C)CC3)cnc2C(C)OC)c2c3cc(ccc31)-c1csc(n1)CC(NC(=O)C1CC1C)C(=O)N1CCCC(N1)C(=O)OCC(C)(C)C2", 1.85),
    ("CC(C)NCC(C(=O)N1CCN(c2ncnc3c2C(C)CC3O)CC1)c1ccc(Cl)cc1 (centres undefined) + CCn1c(-c2cccnc2C(C)OC)c2c3cc(ccc31)N1CCOC(CC(NC(=O)C(C(C)C)N(C)C(=O)C3(F)CCN(C(=O)C#CC(C)(C)N(C)C)CC3)C(=O)N3CCCC(N3)C(=O)OCC(C)(C)C2)C1", 56.5),
    ("C[C@@H](NC(=O)c1ncnc(N)c1Cl)c1ncc(C(=O)Nc2cc(C(F)(F)F)c(Cl)cn2)s1 + CCn1c(-c2cccnc2C(C)OC)c2c3cc(ccc31)N1CCOC(CC(NC(=O)C(C(C)C)N(C)C(=O)C3(F)CCN(C(=O)C#CC(C)(C)N(C)C)CC3)C(=O)N3CCCC(N3)C(=O)OCC(C)(C)C2)C1", 80.9),
]
